Source listed as PubChem BioAssay (NCATS).

System: CP265
Assay: qHTS profiling for inhibitors of Plasmodium falciparum proliferation (AID 504749); further: nearly all actives have a fitted effect of over 60% in size
Conditions: P. falciparum in erythrocytes, SYBR Green DNA, 72 h; series mostly up to 12.8 µM
Inconclusive results are not listed. The source made the active and inactive calls. The call rests on the fitted dose curve; in most records, active means well fitted inhibition curve with a large enough effect; inconclusive means small, poorly fitted or top-dose-only effect; inactive means flat fitted curve, though single readings scatter.
Log the outcome using a class from active, inactive

In: Dear colleague, could you share the recorded outcome for CC(=O)O[C@H]1C[C@@]2(C)[C@H](C[C@@H](O)[C@H]3[C@@]4(C)CC[C@@H](O)[C@@H](C)[C@H]4CC[C@@]32C)C1=C(CCC=C(C)C)C(=O)O when you have a moment?
Out: inactive

In: Dear colleague, could you share the recorded outcome for NC[C@@H]1O[C@@H](O[C@H]2[C@H](O)[C@H](O[C@@H]3O[C@H](CO)[C@@H](O)[C@H](N)[C@@H]3O)[C@@H](N)C[C@H]2N)[C@H](N)C[C@@H]1O when you have a moment?
Out: inactive

In: Dear colleague, could you share the recorded outcome for COC(=O)N/N=C/C1=C[N+](=O)c2ccccc2[N+]1=O when you have a moment?
Out: inactive

In: Dear colleague, could you share the recorded outcome for CC(=O)OCC(=O)[C@@]1(O)[C@H](C)C[C@@H]2[C@H]3CCC4=CC(=O)C=C[C@]4(C)[C@]3(F)[C@@H](O)C[C@@]21C when you have a moment?
Out: inactive

In: Dear colleague, could you share the recorded outcome for COc1c(O[C@H]2O[C@@H](CO)[C@@H](O)[C@@H](O)[C@@H]2O)cc2c(c1OC)-c1ccc(SC)c(=O)cc1[C@H](NC(C)=O)CC2 when you have a moment?
Out: inactive

In: Dear colleague, could you share the recorded outcome for CC[C@](C)(CN(C)C)OC(=O)c1ccccc1 when you have a moment?
Out: inactive

In: Dear colleague, could you share the recorded outcome for CC(=O)O[C@]1(C(C)=O)CC[C@@H]2[C@@H]3C=C(C)C4=CC(=O)CC[C@@]4(C)[C@H]3CC[C@]21C when you have a moment?
Out: inactive

In: Dear colleague, could you share the recorded outcome for CCN(CC)CCOC(=O)[C@@H](Cc1cccc2ccccc12)C[C@@H]1CCCO1 when you have a moment?
Out: inactive

In: Dear colleague, could you share the recorded outcome for C[C@@H]1Cc2ccccc2N1NC(=O)c1ccc(Cl)c(S(N)=O)c1 (some centres undefined) when you have a moment?
Out: inactive

In: Dear colleague, could you share the recorded outcome for C[C@H](N[C@@H](C)COc1ccccc1)[C@H](O)c1ccc(O)cc1 when you have a moment?
Out: inactive

In: Dear colleague, could you share the recorded outcome for COc1ccc([C@@H]2CC(=O)c3c(O)cc(O[C@H]4O[C@@H](CO[C@H]5O[C@@H](C)[C@@H](O)[C@@H](O)[C@@H]5O)[C@@H](O)[C@@H](O)[C@@H]4O)cc3O2)cc1O when you have a moment?
Out: inactive

In: Dear colleague, could you share the recorded outcome for OCC1O[C@H](OC2C(CO)O[C@@](O)(CO)C2O)C(O)C(O)C1O (some centres undefined) when you have a moment?
Out: inactive

In: Dear colleague, could you share the recorded outcome for CC1(C)S[C@@H]2[C@H](NC(=O)[C@@H](N)c3ccccc3)C(=O)N2[C@H]1C(=O)O[C@H]1OC(=O)c2ccccc21 when you have a moment?
Out: inactive

In: Dear colleague, could you share the recorded outcome for C[C@H](O)Cn1cnc2c1c(=O)n(C)c(=O)n2C when you have a moment?
Out: inactive

In: Dear colleague, could you share the recorded outcome for C[C@]1(c2ccccc2)OC(C(=O)O)=CC1=O when you have a moment?
Out: inactive

In: Dear colleague, could you share the recorded outcome for N[C@@H]1C(O)OC(CO)C(O)C1O (some centres undefined) when you have a moment?
Out: inactive

In: Dear colleague, could you share the recorded outcome for CNC1CC(N)[C@H](O)[C@@H](O[C@@H]2OC(CO)C3OC4(OC(C(N)CO)C(O)C(O)C4O)O[C@@H]3[C@H]2O)C1O (some centres undefined) when you have a moment?
Out: inactive

In: Dear colleague, could you share the recorded outcome for CN[C@H]1[C@@H](O)[C@@H](NC)[C@@H]2O[C@@]3(O)C(=O)C[C@@H](C)O[C@H]3O[C@H]2[C@H]1O when you have a moment?
Out: inactive

In: Dear colleague, could you share the recorded outcome for COC1C=CO[C@@]2(C)Oc3c(C)c(O)c4c(O)c(c5c(nc6cc(C)ccn65)c4c3C2=O)NC(=O)/C(C)=C\C=CC(C)C(O)[C@@H](C)C(O)C(C)[C@@H](OC(C)=O)C1C (some centres undefined) when you have a moment?
Out: active

In: Dear colleague, could you share the recorded outcome for CCC(C)C(=O)OC1CCC=C2C=CC(C)C(CCC3CC(O)CC(=O)O3)[C@@H]21 (some centres undefined) when you have a moment?
Out: inactive

In: Dear colleague, could you share the recorded outcome for NC[C@@H]1O[C@H](O[C@@H]2[C@H](O[C@@H]3O[C@H](CO)[C@@H](O)[C@@H]3O)[C@@H](O)[C@@H](N)C[C@H]2N)[C@@H](N)[C@H](O)[C@@H]1O when you have a moment?
Out: inactive

In: Dear colleague, could you share the recorded outcome for CCO[C@H]1O[C@@H]([C@H](COCc2ccccc2)OCc2ccccc2)[C@@H](OCc2ccccc2)[C@H]1O when you have a moment?
Out: inactive

In: Dear colleague, could you share the recorded outcome for OCC1OC([S-])[C@H](O)C(O)C1O.[Au+] (some centres undefined) when you have a moment?
Out: inactive

In: Dear colleague, could you share the recorded outcome for C/C1=C2N=C(/C=C3N=C(/C(C)=C4\[N-]C(C)(C5N=C1C(C)(CCC(=O)NCC(C)OP(=O)([O-])O[C@H]1C(O)C(n6cnc7cc(C)c(C)cc76)O[C@@H]1CO)C5CC(N)=O)C(C)(CC(N)=O)C4CCC(N)=O)C(C)(CC(N)=O)C\3CCC(N)=O)C(C)(C)C/2CCC(N)=O.[CH2-]C1OC(n2cnc3c(N)ncnc32)C(O)C1O.[Co] (some centres undefined) when you have a moment?
Out: inactive

In: Dear colleague, could you share the recorded outcome for COc1ccc2cc1Oc1ccc(cc1)CC1c3c(cc4c(c3Oc3cc5c(cc3OC)CCN(C)C5C2)OCO4)CCN1C (centres undefined) when you have a moment?
Out: active

In: Dear colleague, could you share the recorded outcome for CC1(C)OC2CO[C@]3(COS(N)(=O)=O)OC(C)(C)OC3C2O1 (some centres undefined) when you have a moment?
Out: inactive

In: Dear colleague, could you share the recorded outcome for COc1cc(C2c3cc4c(cc3C(O[C@@H]3OC5COC(c6cccs6)OC5C(O)C3O)C3COC(=O)C23)OCO4)cc(OC)c1O (some centres undefined) when you have a moment?
Out: active

In: Dear colleague, could you share the recorded outcome for CC[C@@H]1OC(=O)[C@H](C)[C@H](O[C@@H]2C[C@](C)(OC)[C@H](O)[C@H](C)O2)[C@H](C)[C@H](O[C@@H]2O[C@@H](C)C[C@@H](N(C)C)[C@@H]2O)[C@](C)(O)C[C@H](C)C(=NOCOCCOC)[C@H](C)[C@H](O)[C@]1(C)O when you have a moment?
Out: inactive

In: Dear colleague, could you share the recorded outcome for CCC(CCC(C)C1CCC2C3CC=C4CC(O)CC[C@@]4(C)C3CC[C@@]12C)C(C)C (some centres undefined) when you have a moment?
Out: inactive
